Kindly state pKd for each of the entries shown.
Target: T1, human ST2L extracellular domain with C-terminal His6 tag (human, UniProt Q01638 19-328)
T1 construct: also called huST2L-ECD; ST2L-ECD
T1 sequence: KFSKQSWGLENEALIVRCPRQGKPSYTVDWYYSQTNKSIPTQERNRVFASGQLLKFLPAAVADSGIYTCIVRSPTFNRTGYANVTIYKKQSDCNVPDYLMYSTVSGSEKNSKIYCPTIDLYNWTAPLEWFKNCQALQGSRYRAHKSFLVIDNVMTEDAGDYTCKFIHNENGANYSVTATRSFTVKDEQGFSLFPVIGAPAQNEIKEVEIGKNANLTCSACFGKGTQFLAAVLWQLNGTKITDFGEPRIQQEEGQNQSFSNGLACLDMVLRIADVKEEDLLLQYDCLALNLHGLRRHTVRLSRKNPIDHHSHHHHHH
Test: ProteOn SPR, mAb captured, ST2L-ECD in solution
Answers are plain numbers, as −log10 of the molar value.

// for each binder in input: emit pKd
1. STLM191 (antibody, V domains shown, C2494 HFA mAb: VH STLH195 + VL STLL276 (L12)) VH: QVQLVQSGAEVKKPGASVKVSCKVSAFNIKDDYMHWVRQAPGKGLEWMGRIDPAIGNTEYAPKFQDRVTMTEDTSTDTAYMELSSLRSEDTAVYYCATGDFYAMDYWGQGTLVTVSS VL: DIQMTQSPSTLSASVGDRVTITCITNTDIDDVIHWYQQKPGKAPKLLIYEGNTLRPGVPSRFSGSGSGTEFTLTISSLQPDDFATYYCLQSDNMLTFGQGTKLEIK
2. STLM193 (antibody, V domains shown, C2494 HFA mAb: VH STLH195 + VL STLL274 (O12)) VH: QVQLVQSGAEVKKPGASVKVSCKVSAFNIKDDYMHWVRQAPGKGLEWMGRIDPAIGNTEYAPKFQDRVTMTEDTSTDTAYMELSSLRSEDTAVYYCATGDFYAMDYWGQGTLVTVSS VL: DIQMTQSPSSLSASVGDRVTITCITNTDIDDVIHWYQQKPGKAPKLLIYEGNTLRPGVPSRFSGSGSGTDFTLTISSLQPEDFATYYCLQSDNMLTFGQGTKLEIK

Return:
1: 9.53; 2: 9.57
